target: TAFIa (Homo sapiens (Human), UniProt Q96IY4)
Sequence (Q96IY4 115-423): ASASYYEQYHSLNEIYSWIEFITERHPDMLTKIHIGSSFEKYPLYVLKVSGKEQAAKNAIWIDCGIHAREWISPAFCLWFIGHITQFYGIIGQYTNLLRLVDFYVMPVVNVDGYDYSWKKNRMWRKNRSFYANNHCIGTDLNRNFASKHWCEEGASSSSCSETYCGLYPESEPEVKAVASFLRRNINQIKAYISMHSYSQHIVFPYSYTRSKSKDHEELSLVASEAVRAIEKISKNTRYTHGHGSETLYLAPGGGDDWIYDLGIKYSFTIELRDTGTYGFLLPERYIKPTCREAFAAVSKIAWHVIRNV
Collected pIC50 values appear next to each entry.
As a rule, pIC50 stands for the negative log10 of the concentration, concentration in M.

Reference set, count: 3
[
  {
    "compound": "CCC1CC(n2cnc(CC(CCCN)C(=O)O)c2)C1 (stereo not drawn)",
    "pIC50": 7.85
  },
  {
    "compound": "CC1(C)CCCC(n2cnc(CC(CCCN)C(=O)O)c2)C1 (stereo not drawn)",
    "pIC50": 8.12
  },
  {
    "compound": "NCCCC(Cc1cn(C2CCCCCC2)cn1)C(=O)O (stereo not drawn)",
    "pIC50": 7.68
  }
]

Query block: Would you please give the reported pIC50 of C[C@H](CN)C[C@H](Cc1cn([C@H]2CC[C@H](C)CC2)cn1)C(=O)O [34(2R,4S form)] with TAFIa (Homo sapiens (Human), UniProt Q96IY4)?
Result block: 7.47

Query block: Would you please give the reported pIC50 of C[C@@H](CN)C[C@@H](Cc1cn([C@H]2CC[C@H](C)CC2)cn1)C(=O)O [35(2S,4R form)] with TAFIa (Homo sapiens (Human), UniProt Q96IY4)?
Result block: 8.29

Query block: Would you please give the reported pIC50 of NCCCC(Cc1cn(C2C3CC4CC(C3)CC2C4)cn1)C(=O)O (stereo not drawn) with TAFIa (Homo sapiens (Human), UniProt Q96IY4)?
Result block: 7.92

Query block: Would you please give the reported pIC50 of CC1CCCC(n2cnc(CC(CCCN)C(=O)O)c2)C1 (stereo not drawn) with TAFIa (Homo sapiens (Human), UniProt Q96IY4)?
Result block: 7.74

---

target: TAFIa (Homo sapiens (Human))
pIC50: −log10 of the molar value.
# binarize pIC50: threshold 8 inclusive, high side 1.0, low side 0.0

[
  {
    "compound": "C[C@@H](CN)C[C@H](Cc1cn([C@H]2CC[C@H](C)CC2)cn1)C(=O)O [35(2R,4R form)]",
    "group": 0.0
  }
]

Query block: Answer whether pIC50 of NCCCC(Cc1cn(C2CCCCC2)cn1)C(=O)O (centres unmarked) is greater than or equal to 8.
Result block: 0.0

Query block: Answer whether pIC50 of C[C@H]1CC[C@H](n2cnc(C[C@@H](CCCN)C(=O)O)c2)CC1 [15(2R form)] is greater than or equal to 8.
Result block: 0.0

Query block: Answer whether pIC50 of NCCCC(Cc1cn([C@H]2CC[C@@H](O)CC2)cn1)C(=O)O (some centres unmarked) is greater than or equal to 8.
Result block: 0.0

Query block: Answer whether pIC50 of C[C@H]1CC[C@H](n2cnc(CC(C(=O)O)N3CC[C@H](N)C3)c2)CC1 (some centres unmarked) is greater than or equal to 8.
Result block: 0.0

Query block: Answer whether pIC50 of C[C@H](CN)C[C@@H](Cc1cn([C@H]2CC[C@H](C)CC2)cn1)C(=O)O [34(2S,4S form)] is greater than or equal to 8.
Result block: 1.0

---

biological target: UniProt Q96IY4
Structures can show the parent of a compound that is named as a salt.
Collected IC50 values appear next to each entry.
Give the quantity in nM, number only.

[
  {
    "compound": "NCCCC(Cc1cn([C@H]2CC[C@H](Oc3ccccc3)CC2)cn1)C(=O)O (some centres unmarked) [Example 14]",
    "units-label": "nM",
    "IC50": 13
  }
]

Query block: Return the recorded IC50 value; entry: CCC(CN)CC(Cc1cn([C@H]2CC[C@H](C)CC2)cn1)C(=O)O (some centres unmarked) [Example 36, hydrochloride]
Result block: 10

Query block: Return the recorded IC50 value; entry: C[C@H]1CC[C@H](n2cnc(CC(CCCN)C(=O)O)c2)CC1 (some centres unmarked) [Example 2]
Result block: 8.3

Query block: Return the recorded IC50 value; entry: NCCCC(Cc1cn([C@H]2CC[C@H](Oc3ccncc3)CC2)cn1)C(=O)O (some centres unmarked) [Example 38, hydrochloride]
Result block: 9.8

Query block: Return the recorded IC50 value; entry: C[C@H]1CC[C@H](n2cnc(C[C@H](CCCN)C(=O)O)c2)CC1 [15(2S form)]
Result block: 7.8
